system_name: Human DYRK1A (Homo sapiens, UniProt Q13627)
Construct: purchased Invitrogen PV3997
assay_comment: DYRK1A Kinase TR-FRET (IMAP-Tb) Assay
Assay type: biochemical
condition_description: TR-FRET (IMAP-Tb); ATP 70 μM; 37° C. for 60 minutes; averages of multiple runs; read-out: Enzyme IC50 (μM) DYRK1A
Structures can show the parent of a compound that is named as a salt.
Task for the reader: assign each of the following molecules its reported IC50.
Write down the numeric answer in µM and omit the unit.

[in] Consider the molecule shown here: NCC(Nc1cccc(-c2n[nH]c3nc(N[C@H]4CC[C@H](N)CC4)ncc23)n1)c1ccccc1 (stereo partly shown) [Example 74, hydrochloride] What is its recorded IC50?
[out] 0.0046

[in] What about N[C@H]1CC[C@H](Nc2ncc3c(-c4cccc(NCc5ccc(Cl)cc5)c4)n[nH]c3n2)CC1 ?
[out] 0.502

[in] Next up: c1cc(NCc2ccsc2)nc(-c2n[nH]c3nc(NCCN4CCOCC4)ncc23)c1
[out] 0.785

[in] Also check c1ccc(CNc2cccc(-c3n[nH]c4nc(NCCN5CCCCC5)ncc34)n2)cc1
[out] 3.96

###

system_name: Human DYRK1B (Homo sapiens, UniProt Q9Y463)
Construct: purchased Invitrogen PR8350B (former PV4649)
Sequence (Q9Y463 whole entry): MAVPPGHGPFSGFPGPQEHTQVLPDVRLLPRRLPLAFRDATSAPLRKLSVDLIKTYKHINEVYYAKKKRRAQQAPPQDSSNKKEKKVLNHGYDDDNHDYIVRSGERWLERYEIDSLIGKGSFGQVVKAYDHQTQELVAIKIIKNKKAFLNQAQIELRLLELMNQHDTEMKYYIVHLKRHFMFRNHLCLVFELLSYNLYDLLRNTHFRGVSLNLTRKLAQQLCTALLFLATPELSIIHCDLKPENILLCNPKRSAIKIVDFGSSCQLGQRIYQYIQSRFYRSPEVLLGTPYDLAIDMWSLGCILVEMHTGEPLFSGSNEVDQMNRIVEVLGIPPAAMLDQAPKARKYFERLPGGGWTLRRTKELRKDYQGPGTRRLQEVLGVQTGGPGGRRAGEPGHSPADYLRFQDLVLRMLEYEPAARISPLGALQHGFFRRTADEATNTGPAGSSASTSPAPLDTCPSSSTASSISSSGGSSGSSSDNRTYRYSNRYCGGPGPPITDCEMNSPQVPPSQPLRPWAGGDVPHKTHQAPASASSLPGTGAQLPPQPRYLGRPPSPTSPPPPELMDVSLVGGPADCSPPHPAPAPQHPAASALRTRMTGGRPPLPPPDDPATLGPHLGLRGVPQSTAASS
assay_comment: DYRK1B Kinase TR-FRET (IMAP-Tb) Assay
Format: biochemical
condition_description: TR-FRET (IMAP-Tb); ATP 70 μM; 37° C. for 60 minutes; averages of multiple runs; read-out: Enzyme IC50 (μM) DYRK1B
outcome_measure: IC50

[in] # get_value(readout= IC50, system= Human DYRK1B (Homo sapiens, UniProt Q9Y463)) for N[C@H]1CC[C@H](Nc2ncc3c(-c4cccc(NCc5ccc(Cl)cc5)c4)n[nH]c3n2)CC1
[out] 0.181 µM

[in] Likewise for Clc1ccc(CNc2cccc(-c3n[nH]c4nc(NCCN5CCOCC5)ncc34)c2)cc1 ?
[out] > 10 µM

[in] Queued: Clc1ccc(CNc2cccc(-c3n[nH]c4nc(NCCN5CCOCC5)ncc34)n2)cc1
[out] 2.92 µM

[in] Also check N[C@H]1CC[C@H](Nc2ncc3c(-c4cccc(NCc5ccccc5)n4)n[nH]c3n2)CC1
[out] 0.101 µM

###

For each record, write down the corresponding EC50.
Tested on: SW620 human colon cancer cells
assay_comment: SW620 Cell Viability Assay
Assay type: cell-based
condition_description: SW-620, 96 h, CellTiter-Glo Luminescent Cell Viability Assay, 4 days incubation, read-out: Cellular EC50 (μM) SW620
Counter-ions that a name gives are not always drawn.

[in] Notebook: pull reported EC50 for SW620 human colon cancer cells, entry N[C@H]1CC[C@H](Nc2ncc3c(-c4cccc(NCc5ccccc5)n4)n[nH]c3n2)CC1
[out] 1.71 µM

[in] Also need NCC(Nc1cccc(-c2n[nH]c3nc(N[C@H]4CC[C@H](N)CC4)ncc23)n1)c1ccccc1 (stereo partly shown) [Example 74, hydrochloride] , thanks.
[out] > 10 µM

[in] Same read-out for NCCC(Nc1nccc(-c2n[nH]c3nc(NCCN4CCOCC4)ncc23)n1)c1ccccc1 (stereo not shown) [Example 81, hydrochloride] ?
[out] 1.75 µM

[in] Next entry: NCCC(Nc1cccc(-c2n[nH]c3nc(N[C@H]4CC[C@H](N)CC4)ncc23)c1)c1ccccc1 (stereo partly shown) [Example 79, hydrochloride]
[out] > 10 µM

[in] Now consider N[C@H]1CC[C@H](Nc2ncc3c(-c4cccc(NCc5cccs5)c4)n[nH]c3n2)CC1 and answer again.
[out] 1.84 µM

[in] // repeat for N[C@H]1CC[C@H](Nc2ncc3c(-c4ccnc(NCc5ccc(Cl)cc5)n4)n[nH]c3n2)CC1 [Example 72, hydrochloride] and report
[out] 0.056 µM

[in] One more molecule: c1ccc(CNc2nccc(-c3n[nH]c4nc(NCCN5CCOCC5)ncc34)n2)cc1 [Example 61, hydrochloride]
[out] > 10 µM
